System: MOLT-4
Experiment: NCI tumour cell line growth inhibition, 48 h
The source made the active and inactive calls. Rule as the data show it: active = GI50 up to about 1.1 µM and inactive = higher.

# COMPOUND, GI50
measured = [
    ("Cn1c2cc(Cl)ccc2c2ccc3c(c21)C(=O)C=CC3=O", "2.75 µM (inactive)"),
    ("COC(=O)CC1C=CC(C)(OC)OO1 (stereo not given)", "> 10 µM (inactive)"),
    ("CCOC(=O)/N=c1/nc(N(C)C)ss1", "> 100 µM (inactive)"),
    ("Cc1ccc(NC(=O)C(=O)Cc2cccc[n+]2[O-])cc1C", "> 100 µM (inactive)"),
    ("Fc1ccc(C2(CCCN3CCc4[nH]c5cc(F)ccc5c4C3)OCCO2)cc1", "6.67 µM (inactive)"),
    ("CON(C)C(=O)C(C)NC(=O)OCc1ccccc1 (stereo not given)", "> 100 µM (inactive)"),
    ("C#C[C@@H](CCCC)OC(=O)N[C@H](C)c1ccccc1", "27.3 µM (inactive)"),
    ("O=C(NCCCCNCCCNC(=O)c1cc(-c2ccccc2)nc2ccccc12)c1cc(-c2ccccc2)nc2ccccc12", "1.42 µM (inactive)"),
    ("COc1cc(Nc2nc3cc(C(F)(F)F)ccc3n3cccc23)cc(OC)c1OC", "8.49 µM (inactive)"),
    ("[O-][Cl+3]([O-])([O-])[O-].c1ccc(-c2[o+]c(-c3ccccc3)c(-c3ccccc3)c(-c3ccccc3)c2-c2ccccc2)cc1", "44.7 µM (inactive)"),
]
